# tested_target: T1, Bovine Alpha-s1-casein (SEQ ID NO: 1)
# T1 chain: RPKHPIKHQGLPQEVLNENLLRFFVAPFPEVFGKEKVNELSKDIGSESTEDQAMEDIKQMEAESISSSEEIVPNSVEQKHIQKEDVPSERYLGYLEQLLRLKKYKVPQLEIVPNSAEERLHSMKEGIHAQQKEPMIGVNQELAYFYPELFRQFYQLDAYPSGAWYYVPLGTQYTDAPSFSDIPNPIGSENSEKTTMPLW
value_type: phosphorylation at S137, MS grade, in vitro kinase reaction

protein | measured_value
PKNB1_Cgl2751 (Corynebacterium glutamicum) (SEQ ID NO: 9) (protein) MYEVLGVIAHGGMGWIYLANDRNVSGRIVVLKGMMAQSSVQDQGTAEAEREFLADITHPGIVKAYNFIDDPRVPGGFIVMEYVNGPSLKDRCKAQPDGVLRVDLAIGYILELLPAMDYLHQRGVVYNDLKPENVIATEDQVKLIDLGAVTGIGAFGYIYGTKGFQAPEVATHGPSISSDIFTIGRTLAALTMPLPVEDGVLAPGIPSPKNSPLLRRHLSFYRLLQRATADDPQHRFRNVSELRTQLYGVLREILAVRDGKQYPPQHSLFSPQRSTFGTKHLVF | +

Cited source for all entries: patent US20250206792
